# credit: ChEMBL document CHEMBL3797125

// values below are reported pEC50
# Tgt: Glutamate NMDA receptor; GRIN1/GRIN2A (Homo sapiens, UniProt Q05586+Q12879)
# Sequence (Q12879 whole entry, other chains not shown): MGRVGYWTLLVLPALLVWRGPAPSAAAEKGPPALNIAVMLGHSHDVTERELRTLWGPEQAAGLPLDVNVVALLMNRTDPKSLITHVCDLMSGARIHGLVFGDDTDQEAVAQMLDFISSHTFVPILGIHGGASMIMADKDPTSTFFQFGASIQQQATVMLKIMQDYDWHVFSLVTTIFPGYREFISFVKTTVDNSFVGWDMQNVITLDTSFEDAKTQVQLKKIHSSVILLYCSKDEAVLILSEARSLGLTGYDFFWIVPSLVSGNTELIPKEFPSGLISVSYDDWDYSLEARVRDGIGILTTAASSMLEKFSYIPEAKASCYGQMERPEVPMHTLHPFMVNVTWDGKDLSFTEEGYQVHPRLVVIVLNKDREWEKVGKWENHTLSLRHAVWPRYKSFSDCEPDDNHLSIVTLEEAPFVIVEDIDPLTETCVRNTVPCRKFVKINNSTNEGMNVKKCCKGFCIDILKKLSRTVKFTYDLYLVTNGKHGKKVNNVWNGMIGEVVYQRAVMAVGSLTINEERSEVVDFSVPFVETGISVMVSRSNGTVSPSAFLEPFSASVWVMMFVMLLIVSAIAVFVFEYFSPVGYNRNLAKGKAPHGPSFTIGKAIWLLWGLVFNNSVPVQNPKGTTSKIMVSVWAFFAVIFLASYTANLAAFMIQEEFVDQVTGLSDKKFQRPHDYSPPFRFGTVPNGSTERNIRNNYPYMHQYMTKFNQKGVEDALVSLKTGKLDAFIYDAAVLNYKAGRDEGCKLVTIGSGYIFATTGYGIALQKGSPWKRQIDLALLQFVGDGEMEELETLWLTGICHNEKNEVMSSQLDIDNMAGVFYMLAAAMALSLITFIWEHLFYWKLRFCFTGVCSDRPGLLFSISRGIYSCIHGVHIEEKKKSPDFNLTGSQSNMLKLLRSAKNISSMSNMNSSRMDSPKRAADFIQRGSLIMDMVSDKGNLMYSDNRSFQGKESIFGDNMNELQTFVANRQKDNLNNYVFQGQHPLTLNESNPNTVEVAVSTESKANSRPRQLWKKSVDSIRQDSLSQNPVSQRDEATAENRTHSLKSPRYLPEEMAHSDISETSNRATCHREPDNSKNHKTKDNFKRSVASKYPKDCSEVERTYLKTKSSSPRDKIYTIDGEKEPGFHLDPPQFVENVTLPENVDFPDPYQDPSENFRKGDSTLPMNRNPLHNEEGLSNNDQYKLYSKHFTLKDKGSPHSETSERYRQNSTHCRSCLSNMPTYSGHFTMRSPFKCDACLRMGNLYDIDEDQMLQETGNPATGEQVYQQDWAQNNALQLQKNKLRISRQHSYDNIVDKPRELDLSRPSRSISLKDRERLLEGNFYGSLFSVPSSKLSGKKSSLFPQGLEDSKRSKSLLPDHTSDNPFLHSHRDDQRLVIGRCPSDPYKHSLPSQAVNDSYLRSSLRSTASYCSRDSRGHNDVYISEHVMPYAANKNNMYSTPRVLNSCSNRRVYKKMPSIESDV
# Assay Explanation: Positive allosteric modulation of GluN1/GluN2A NMDAR (unknown origin) expressed in Dox-inducible cells measured every 5 mins by BD calcium indicator dye based-fluorescence analysis in presence of glutamate/glycine
pEC50: −log10 of the molar value.
Measured Endpoint: pEC50

smiles_record=C=C(C)c1c(C)sc2nc(CN(CC)c3ccc(F)cc3)cc(=O)n12 measured_number=7.22
smiles_record=CCNC(=O)c1c(C)sc2nc(Cn3ccc(C(F)(F)F)n3)cc(=O)n12 measured_number=4.77
smiles_record=CCNC(=O)c1c(C)sc2nc(CNc3ccc(F)cc3)cc(=O)n12 measured_number=5.15
smiles_record=CCN(Cc1cc(=O)n2nc(C)sc2n1)c1ccccc1 measured_number=5.72
smiles_record=CCNC(=O)c1c(C)sc2nc(Cc3cc(C#N)ccc3Cl)cc(=O)n12 measured_number=4.89
smiles_record=CCCCc1nn2c(=O)cc(CN(CC)c3ccccc3)nc2s1 measured_number=5.03
